Reported inhibition at 1 µM values for a set of compounds
Molecular target: hFAAH (Homo sapiens, UniProt O00519)
Construct: expressed in transfected cells; host or cells: HEK293-TRex (Invitrogen) stably transfected with hFAAH in the pcDNA5-Tet-off vector, or T84 human colon epithelial cells (endogenous hFAAH); used as a microsomal preparation
Sequence (O00519 1-579): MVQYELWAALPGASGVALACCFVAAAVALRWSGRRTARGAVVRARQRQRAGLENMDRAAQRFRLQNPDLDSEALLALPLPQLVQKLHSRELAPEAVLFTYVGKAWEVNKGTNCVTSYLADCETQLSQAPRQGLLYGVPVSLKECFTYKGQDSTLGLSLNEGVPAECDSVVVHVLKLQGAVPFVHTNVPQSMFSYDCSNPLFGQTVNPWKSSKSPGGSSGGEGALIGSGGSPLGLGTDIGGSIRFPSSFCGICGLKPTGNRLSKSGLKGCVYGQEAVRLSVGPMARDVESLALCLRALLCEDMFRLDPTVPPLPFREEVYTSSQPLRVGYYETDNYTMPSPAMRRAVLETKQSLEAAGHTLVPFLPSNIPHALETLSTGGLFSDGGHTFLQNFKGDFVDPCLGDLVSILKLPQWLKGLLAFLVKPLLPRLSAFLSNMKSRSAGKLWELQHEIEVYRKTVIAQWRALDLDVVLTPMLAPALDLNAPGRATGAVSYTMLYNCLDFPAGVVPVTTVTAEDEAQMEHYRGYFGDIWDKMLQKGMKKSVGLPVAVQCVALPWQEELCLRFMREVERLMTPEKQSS
Assay: Fluorimetric assay with hFAAH microsomes (enzymatic, fluorescence based)
Format: biochemical
Conditions: compound at 1 uM, AA-AMC substrate

| compound | measurement.name | measured.result |
| --- | --- | --- |
| Cc1ccccc1CN1Cc2ncnc(Nc3cnc4ccccc4c3)c2C1 | inhibition at 1 µM | > 75% |
| CC(C1CCCCC1)N1Cc2ncnc(Nc3cnc4ccccc4c3)c2C1 (centres unmarked) | inhibition at 1 µM | > 75% |
| c1ccc2ncc(Nc3ncnc4c3CN(CC3CCOCC3)C4)cc2c1 | inhibition at 1 µM | > 75% |

Here's the next entry for you.
inhibition at 1 µM reading for Cc1ccccc1S(=O)(=O)N1Cc2ncnc(Nc3cnc4ccccc4c3)c2C1 : > 75%

Source listed as patent US20110257208A1.
